Molecular target: human CB2 receptors (Homo sapiens, UniProt P34972)
Construct: expressed in transfected cells
Sequence (P34972 whole entry): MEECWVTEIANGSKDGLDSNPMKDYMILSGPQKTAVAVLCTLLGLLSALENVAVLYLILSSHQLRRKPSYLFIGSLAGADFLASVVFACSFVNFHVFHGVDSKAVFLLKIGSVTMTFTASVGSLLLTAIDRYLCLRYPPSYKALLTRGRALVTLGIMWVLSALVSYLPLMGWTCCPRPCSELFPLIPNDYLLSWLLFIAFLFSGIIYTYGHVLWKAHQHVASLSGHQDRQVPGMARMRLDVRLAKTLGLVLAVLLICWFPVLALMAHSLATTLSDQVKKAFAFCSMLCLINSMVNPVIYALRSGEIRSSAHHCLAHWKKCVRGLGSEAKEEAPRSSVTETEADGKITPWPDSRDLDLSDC
Experiment: [3H]CP-55,940 radioligand competition binding assay, CB2
Procedure: Binding assay. The bioassay is carried out using the Perkin Elmer 96-well Top Counter. […] Perkin Elmer 96-well TopCounter is used at PMLSC and in our laboratory to determine the CB receptor binding affinity (Ki) of the in-silico screened ligands by displacing [^3H]-CP-55,940 (or other radioligands). […] Then the bound radioactivity is counted using a Perkin Elmer 96-well TopCounter. […]
READOUT_NAME: SI: selectivity index for CB2, calculated as Ki(CB1)/Ki(CB2) ratio

• CCCCCN(Cc1ccc(N(CC)CC)cc1)S(=O)(=O)/C=C/c1ccccc1 = 10
• CCN(CC)c1ccc(CN(Cc2cccnc2)S(=O)(=O)c2ccc(-c3ccccc3)cc2)cc1 = 21
• CCCCCN(Cc1ccc(N(CC)CC)cc1)C(=O)c1cccs1 = 7
• CCCCCN(Cc1ccc(N(CC)CC)cc1)S(=O)(=O)c1ccc(C=O)cc1 = 3
• CCN(CC)c1ccc(CN(Cc2cc(OC)c(OC)c(OC)c2)S(=O)(=O)c2cccc(C)c2)cc1 = 3
• CCN(CC)c1ccc(CN(Cc2cc(OC)c(OC)c(OC)c2)C(=O)c2cccs2)cc1 = 31

Origin of values: patent US11059778B2
